test system: hLiMTs; assay: Combined HCI (HCS) and cellular ATP 3D assay in hLiMTs; conditions: Homo sapiens, read-out: HCS endpoint MEC
readout.kind: minimal effective concentration (µM)
Enter your answer as a number in µM; do not include the unit.

compound	minimal effective concentration, µM
CCN(CC)CC#CCOC(=O)C(O)(c1ccccc1)C1CCCCC1 (centres unmarked)	2.11
Cn1cnc([N+](=O)[O-])c1Sc1ncnc2nc[nH]c12	1.58
CC(COc1ccccc1)N(CCCl)Cc1ccccc1 (centres unmarked)	15.6
CN(C)C(=N)N=C(N)N	28.1

The compound identified as NCCCC(O)(P(=O)(O)O)P(=O)(O)O [alendronate] registered its minimal effective concentration at 2.24

Value of minimal effective concentration reported for the compound "CC(=O)Nc1ccc(O)cc1" is 456

Per the records, this compound ( "CCN(CC)CCNC(=O)c1c(C)[nH]c(/C=C2\C(=O)Nc3ccc(F)cc32)c1C" ) has minimal effective concentration equal to 0.157

Record summary for "Cc1cc2c(cc1CC(=O)c1sccc1S(=O)(=O)Nc1onc(C)c1Cl)OCO2" : reported minimal effective concentration = 130
